tested_target: UniProt:P29274
Sequence (P29274 whole entry): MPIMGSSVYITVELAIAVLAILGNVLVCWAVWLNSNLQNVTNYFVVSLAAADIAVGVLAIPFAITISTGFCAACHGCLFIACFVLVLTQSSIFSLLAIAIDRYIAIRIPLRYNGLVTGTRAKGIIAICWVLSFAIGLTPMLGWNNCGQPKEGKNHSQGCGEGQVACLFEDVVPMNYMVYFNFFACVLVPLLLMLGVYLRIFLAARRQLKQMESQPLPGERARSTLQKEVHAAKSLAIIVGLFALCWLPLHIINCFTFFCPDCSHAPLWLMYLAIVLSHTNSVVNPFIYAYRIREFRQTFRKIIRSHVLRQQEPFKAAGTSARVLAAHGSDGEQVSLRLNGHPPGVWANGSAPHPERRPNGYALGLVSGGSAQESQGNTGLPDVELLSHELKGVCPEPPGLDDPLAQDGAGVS
readout_label: pIC50
Numbers only, as −log10 of the molar value.

pIC50 reported for this compound COc1cccc2c1nc(N)n1nc(CCS(=O)(=O)C(F)(F)F)nc21 : 7.96

Source of measurements: BindingDB's records for patent US20240076297
